# Test system: S. cerevisiae expressing PfHSP40, growth rescue, plate reader
# test summary: Yeast growth rescue from Plasmodium falciparum HSP40 toxicity, dose response confirmatory, plate reader (AID 540271);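 also: yeast growth read after three days of incubation at 30 °C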
Activity calls are given as the source filed them. No rule for the calls is given here.
Labels: active, inactive

                                   compound     group
0  O=C(CSc1nc2ccccc2s1)N/N=C/c1cc([N+](=O)[O-])ccc1O    active
1  COC(=O)c1ccc(N2C(=O)CC(N(C)CCc3ccc(OC)c(OC)c3)C2=O)cc1 (stereo not given)    active
2        O=C(N/N=C/c1cc(Br)ccc1O)c1ccccc1Cl    active
3  CCCS(=O)(=O)c1c(S(=O)(=O)CCC)c2c(C)cccn2c1C(=O)N/N=C/c1cc(O)cc(O)c1    active
4  C[C@@]12CCC3[C@@](CCC4[C@@]3(C)CCC[C@@]4(C)C(=O)NCc3ccccc3)(CC1=O)C2 (stereo not given in full)    active
5  O=[N+]([O-])c1ccc2c(OCc3nnc(-c4ccccc4Br)o3)ncnc2c1    active
6  CCCC1CCC(c2ccc(/C(N)=N/O)cc2)CC1 (stereo not given)  inactive
7  O=C(c1ccc(-c2ccccc2)c(F)c1)C1CCCN(C(=O)c2cncs2)C1 (stereo not given)    active
8                     O=C1Nc2c(Br)cccc2C1=O    active
9     Clc1ccccc1CN(Cc1ccco1)Cc1nnnn1C1CCCC1    active

###

# System: S. cerevisiae expressing PfHSP40, growth rescue, plate reader
# test summary: Yeast growth rescue from Plasmodium falciparum HSP40 toxicity, dose response confirmatory, plate reader (AID 540271);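 also: yeast growth read after three days of incubation at 30 °C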
Activity calls are given as the source filed them. The rule behind the calls is not given here.
Outcomes: 1 (yes) (active), 0 (no) (inactive)

>>> df
                                    molecule                           measured_target    group
 0    Oc1c(CN2CCCC2)cc(COCc2ccccc2)c2cccnc12  S. cerevisiae expressing PfHSP40, growth rescue, plate reader  1 (yes)
 1  CC1=NN(C(N)=S)C(=O)C1N=Nc1cccc(Cl)c1C (stereo not drawn)  S. cerevisiae expressing PfHSP40, growth rescue, plate reader  1 (yes)
 2  O=C(Nc1cc(Oc2ccc(Cl)cc2)cc([N+](=O)[O-])c1)c1ccco1  S. cerevisiae expressing PfHSP40, growth rescue, plate reader   0 (no)
 3  CC12CCC(O)CC1=CCC1C2CCC2(C)C3=NN=CC3CC12 (stereo not drawn)  S. cerevisiae expressing PfHSP40, growth rescue, plate reader  1 (yes)
 4         CCOC(=O)c1cccc2c1-c1ccccc1/C2=N/O  S. cerevisiae expressing PfHSP40, growth rescue, plate reader  1 (yes)
 5  O=C1CC(N2CCCCCC2)C(=O)N1c1ccc2c(c1)OCO2 (stereo not drawn)  S. cerevisiae expressing PfHSP40, growth rescue, plate reader  1 (yes)
 6  COc1ccc2c(c1)OC[C@H]1[C@H]2N2C(=O)c3cc(Cl)ccc3NC(=O)[C@@]2(C)[C@H]1c1ccccc1  S. cerevisiae expressing PfHSP40, growth rescue, plate reader  1 (yes)
 7    Oc1ccc(/C=N/Nc2ccc(C(F)(F)F)cn2)c(O)c1  S. cerevisiae expressing PfHSP40, growth rescue, plate reader  1 (yes)
 8       Cc1nc2ccc(NC(=O)COc3cccc(F)c3)cc2s1  S. cerevisiae expressing PfHSP40, growth rescue, plate reader  1 (yes)
 9  O=C(N[C@@H](Cc1ccccc1)C(=O)CCl)OCc1ccccc1  S. cerevisiae expressing PfHSP40, growth rescue, plate reader  1 (yes)
10            COc1cccc(C(C)=C2SC(=S)NC2=O)c1  S. cerevisiae expressing PfHSP40, growth rescue, plate reader  1 (yes)
11  O=S(=O)(Nc1ccccc1)c1ccc(Oc2ncc(C(F)(F)F)cc2Cl)cc1  S. cerevisiae expressing PfHSP40, growth rescue, plate reader  1 (yes)
12    CC1=CC(=O)C=C(C)C1=NOS(=O)(=O)c1ccccc1  S. cerevisiae expressing PfHSP40, growth rescue, plate reader  1 (yes)
